# Tested on: EKVX
# measurementProtocol: relative viability (nuclei count vs DMSO), 5 days (fraction); higher = more cells survive
# measurementConditions: first compound 8 µM
measuredParameter: relative viability
Please state the value as a number alone, without comment.

molecule	relative viability
O=c1cc(-c2cccc3c2Sc2ccccc2S3)oc(N2CCOCC2)c1 + Cc1nc(Nc2ncc(C(=O)Nc3c(C)cccc3Cl)s2)cc(N2CCN(CCO)CC2)n1 [Dasatinib] (partner 0.075 µM)	0.355
O=c1cc(-c2cccc3c2Sc2ccccc2S3)oc(N2CCOCC2)c1 + Cc1cc(Nc2cc(N3CCN(C)CC3)nc(Sc3ccc(NC(=O)C4CC4)cc3)n2)n[nH]1 [Tozasertib] (partner 0.1 µM)	0.412

Turning now to a further record.
Requested read-out: relative viability. Entry: O=c1cc(-c2cccc3c2Sc2ccccc2S3)oc(N2CCOCC2)c1 + CCNC(=O)c1noc(-c2cc(C(C)C)c(O)cc2O)c1-c1ccc(CN2CCOCC2)cc1 [Luminespib] (partner 0.01 µM)
0.853

###

# System: HCC-78
# measurementProtocol: relative viability (nuclei count vs DMSO), 5 days (fraction); higher = more cells survive
# measurementConditions: first compound 0.01 µM
Could you please mark TRUE for values of relative viability below 0.5 and FALSE for values at or above it?

Completed entries (count: 7):
compound	targetUnderTest	label
O=c1cc(N2CCOCC2)oc2c(-c3cccc4c3sc3ccccc34)cccc12 + Cc1cc(Nc2cc(N3CCN(C)CC3)nc(Sc3ccc(NC(=O)C4CC4)cc3)n2)n[nH]1 [Tozasertib] (partner 0.1 µM)	HCC-78	TRUE
O=c1cc(N2CCOCC2)oc2c(-c3cccc4c3sc3ccccc34)cccc12 + O=C(CCCCCCC(=O)Nc1ccccc1)NO [Vorinostat] (partner 1 µM)	HCC-78	TRUE
CCN(CC)CCCCNc1ncc2cc(-c3cc(OC)cc(OC)c3)c(NC(=O)NC(C)(C)C)nc2n1 + CC(=O)Nc1cccc(-n2c(=O)n(C3CC3)c(=O)c3c(Nc4ccc(I)cc4F)n(C)c(=O)c(C)c32)c1 [Trametinib] (partner 0.02 µM)	HCC-78	FALSE
O=c1cc(N2CCOCC2)oc2c(-c3cccc4c3sc3ccccc34)cccc12 + O=C(c1cc(Cc2n[nH]c(=O)c3ccccc23)ccc1F)N1CCN(C(=O)C2CC2)CC1 [Olaparib] (partner 8 µM)	HCC-78	FALSE
O=c1cc(N2CCOCC2)oc2c(-c3cccc4c3sc3ccccc34)cccc12 + CC(C)C[C@H](NC(=O)[C@H](Cc1ccccc1)NC(=O)c1cnccn1)B(O)O [Bortezomib] (partner 0.002 µM)	HCC-78	FALSE
CCN(CC)CCCCNc1ncc2cc(-c3cc(OC)cc(OC)c3)c(NC(=O)NC(C)(C)C)nc2n1 + O=C(c1cc(Cc2n[nH]c(=O)c3ccccc23)ccc1F)N1CCN(C(=O)C2CC2)CC1 [Olaparib] (partner 8 µM)	HCC-78	FALSE
O=c1cc(N2CCOCC2)oc2c(-c3cccc4c3sc3ccccc34)cccc12 + Nc1ncn([C@H]2C[C@H](O)[C@@H](CO)O2)c(=O)n1 [Decitabine] (partner 2 µM)	HCC-78	FALSE

Next item in the queue.
Confirm or reject: relative viability of O=c1cc(N2CCOCC2)oc2c(-c3cccc4c3sc3ccccc34)cccc12 + NC(=O)Nc1cc(-c2cccc(F)c2)sc1C(=O)N[C@H]1CCCNC1 [AZD7762] (partner 0.2 µM) lies strictly below 0.5
FALSE

###

# Tested on: HCC-827
# measurementProtocol: relative viability (nuclei count vs DMSO), 5 days (fraction); higher = more cells survive
# measurementConditions: first compound 0.3162 µM
measuredParameter: relative viability

compound	targetUnderTest	relative viability
CCN(CC)CCCCNc1ncc2cc(-c3cc(OC)cc(OC)c3)c(NC(=O)NC(C)(C)C)nc2n1 + CC(=O)Nc1cccc(-n2c(=O)n(C3CC3)c(=O)c3c(Nc4ccc(I)cc4F)n(C)c(=O)c(C)c32)c1 [Trametinib] (partner 0.02 µM)	HCC-827	0.587

With those in mind, consider the next compound.
GET /values?readout=relative viability&item= O=c1cc(N2CCOCC2)oc2c(-c3cccc4c3sc3ccccc34)cccc12 + CC1(C)CCC(c2ccc(Cl)cc2)=C(CN2CCN(c3ccc(C(=O)NS(=O)(=O)c4ccc(N[C@H](CCN5CCOCC5)CSc5ccccc5)c(S(=O)(=O)C(F)(F)F)c4)cc3)CC2)C1 [Navitoclax] (partner 0.5 µM)
1.07

###

# Tested on: NCI-H1993
# measurementProtocol: relative viability (nuclei count vs DMSO), 5 days (fraction); higher = more cells survive
# measurementConditions: first compound 0.6325 µM
// returns 0 (no) unless relative viability is strictly below 0.8, in which case 1 (yes)

Solved cases (4 shown):
compound	label
COCC1(CO)C(=O)C2CCN1CC2 (stereo not given) [PRIMA-1MET] + CC1(C)CCC(c2ccc(Cl)cc2)=C(CN2CCN(c3ccc(C(=O)NS(=O)(=O)c4ccc(N[C@H](CCN5CCOCC5)CSc5ccccc5)c(S(=O)(=O)C(F)(F)F)c4)cc3)CC2)C1 [Navitoclax] (partner 0.5 µM)	1 (yes)
COCC1(CO)C(=O)C2CCN1CC2 (stereo not given) [PRIMA-1MET] + COc1cccc2cc(-c3nc([C@H]4CC[C@H](C(=O)O)CC4)n4ncnc(N)c34)[nH]c12 [OSI-027] (partner 0.5 µM)	1 (yes)
COCC1(CO)C(=O)C2CCN1CC2 (stereo not given) [PRIMA-1MET] + CCNC(=O)c1noc(-c2cc(C(C)C)c(O)cc2O)c1-c1ccc(CN2CCOCC2)cc1 [Luminespib] (partner 0.01 µM)	0 (no)
COCC1(CO)C(=O)C2CCN1CC2 (stereo not given) [PRIMA-1MET] + Cc1nc(NC(=O)N2CCC[C@H]2C(N)=O)sc1-c1ccnc(C(C)(C)C(F)(F)F)c1 [Alpelisib] (partner 2 µM)	1 (yes)

Consider COCC1(CO)C(=O)C2CCN1CC2 (stereo not given) [PRIMA-1MET] + CS(=O)(=O)CCNCc1ccc(-c2ccc3ncnc(Nc4ccc(OCc5cccc(F)c5)c(Cl)c4)c3c2)o1 [Lapatinib] (partner 2 µM) . Does its relative viability lie strictly below 0.8?
1 (yes)

###

# Test system: EKVX
# measurementProtocol: relative viability (nuclei count vs DMSO), 5 days (fraction); higher = more cells survive
# measurementConditions: first compound 0.3162 µM
measuredParameter: relative viability
Number only, please.

Worked cases, answers included:
molecule	relative viability
CCN(CC)CCCCNc1ncc2cc(-c3cc(OC)cc(OC)c3)c(NC(=O)NC(C)(C)C)nc2n1 + CC(=O)Nc1cccc(-n2c(=O)n(C3CC3)c(=O)c3c(Nc4ccc(I)cc4F)n(C)c(=O)c(C)c32)c1 [Trametinib] (partner 0.02 µM)	0.328
O=c1cc(N2CCOCC2)oc2c(-c3cccc4c3sc3ccccc34)cccc12 + CC(C)C[C@H](NC(=O)[C@H](Cc1ccccc1)NC(=O)c1cnccn1)B(O)O [Bortezomib] (partner 0.002 µM)	1.11
O=c1cc(N2CCOCC2)oc2c(-c3cccc4c3sc3ccccc34)cccc12 + Cc1nc(NC(=O)N2CCC[C@H]2C(N)=O)sc1-c1ccnc(C(C)(C)C(F)(F)F)c1 [Alpelisib] (partner 2 µM)	0.858
O=c1cc(N2CCOCC2)oc2c(-c3cccc4c3sc3ccccc34)cccc12 + CC(=O)Nc1cccc(-n2c(=O)n(C3CC3)c(=O)c3c(Nc4ccc(I)cc4F)n(C)c(=O)c(C)c32)c1 [Trametinib] (partner 0.02 µM)	0.321
CCN(CC)CCCCNc1ncc2cc(-c3cc(OC)cc(OC)c3)c(NC(=O)NC(C)(C)C)nc2n1 + CCNC(=O)c1noc(-c2cc(C(C)C)c(O)cc2O)c1-c1ccc(CN2CCOCC2)cc1 [Luminespib] (partner 0.01 µM)	0.971

What relative viability value was documented for this molecule, CCN(CC)CCCCNc1ncc2cc(-c3cc(OC)cc(OC)c3)c(NC(=O)NC(C)(C)C)nc2n1 + N=C(N)NC(=N)NCCc1ccccc1 [Phenformin] (partner 250 µM) ?
0.258

Please look up its relative viability: O=c1cc(N2CCOCC2)oc2c(-c3cccc4c3sc3ccccc34)cccc12 + CS(=O)(=O)CCNCc1ccc(-c2ccc3ncnc(Nc4ccc(OCc5cccc(F)c5)c(Cl)c4)c3c2)o1 [Lapatinib] (partner 2 µM)
0.202

###

# Tested on: NCI-H2087
# measurementProtocol: relative viability (nuclei count vs DMSO), 5 days (fraction); higher = more cells survive
# measurementConditions: first compound 0.3162 µM
measuredParameter: relative viability
Quick one: just the number, no unit, thanks!

See these solved cases before continuing.
compound	measuredParameter	quantitativeReadout
O=c1cc(N2CCOCC2)oc2c(-c3cccc4c3sc3ccccc34)cccc12 + COc1cccc2cc(-c3nc([C@H]4CC[C@H](C(=O)O)CC4)n4ncnc(N)c34)[nH]c12 [OSI-027] (partner 0.5 µM)	relative viability	0.416
O=c1cc(N2CCOCC2)oc2c(-c3cccc4c3sc3ccccc34)cccc12 + N=C(N)NC(=N)NCCc1ccccc1 [Phenformin] (partner 250 µM)	relative viability	0.46

Consider the compound shown here: O=c1cc(N2CCOCC2)oc2c(-c3cccc4c3sc3ccccc34)cccc12 + O=C(CCCCCCC(=O)Nc1ccccc1)NO [Vorinostat] (partner 1 µM) What is its recorded relative viability?
0.64
